Hey, just so you know, these numbers are from paper PMC4336329.

Molecular target: human ether-à-go-go-related gene (hERG) potassium channel (human, UniProt Q12809);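 also: peak tail current of the secondary pulse compared with the same well before compound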
Sequence (Q12809 whole entry, looked up): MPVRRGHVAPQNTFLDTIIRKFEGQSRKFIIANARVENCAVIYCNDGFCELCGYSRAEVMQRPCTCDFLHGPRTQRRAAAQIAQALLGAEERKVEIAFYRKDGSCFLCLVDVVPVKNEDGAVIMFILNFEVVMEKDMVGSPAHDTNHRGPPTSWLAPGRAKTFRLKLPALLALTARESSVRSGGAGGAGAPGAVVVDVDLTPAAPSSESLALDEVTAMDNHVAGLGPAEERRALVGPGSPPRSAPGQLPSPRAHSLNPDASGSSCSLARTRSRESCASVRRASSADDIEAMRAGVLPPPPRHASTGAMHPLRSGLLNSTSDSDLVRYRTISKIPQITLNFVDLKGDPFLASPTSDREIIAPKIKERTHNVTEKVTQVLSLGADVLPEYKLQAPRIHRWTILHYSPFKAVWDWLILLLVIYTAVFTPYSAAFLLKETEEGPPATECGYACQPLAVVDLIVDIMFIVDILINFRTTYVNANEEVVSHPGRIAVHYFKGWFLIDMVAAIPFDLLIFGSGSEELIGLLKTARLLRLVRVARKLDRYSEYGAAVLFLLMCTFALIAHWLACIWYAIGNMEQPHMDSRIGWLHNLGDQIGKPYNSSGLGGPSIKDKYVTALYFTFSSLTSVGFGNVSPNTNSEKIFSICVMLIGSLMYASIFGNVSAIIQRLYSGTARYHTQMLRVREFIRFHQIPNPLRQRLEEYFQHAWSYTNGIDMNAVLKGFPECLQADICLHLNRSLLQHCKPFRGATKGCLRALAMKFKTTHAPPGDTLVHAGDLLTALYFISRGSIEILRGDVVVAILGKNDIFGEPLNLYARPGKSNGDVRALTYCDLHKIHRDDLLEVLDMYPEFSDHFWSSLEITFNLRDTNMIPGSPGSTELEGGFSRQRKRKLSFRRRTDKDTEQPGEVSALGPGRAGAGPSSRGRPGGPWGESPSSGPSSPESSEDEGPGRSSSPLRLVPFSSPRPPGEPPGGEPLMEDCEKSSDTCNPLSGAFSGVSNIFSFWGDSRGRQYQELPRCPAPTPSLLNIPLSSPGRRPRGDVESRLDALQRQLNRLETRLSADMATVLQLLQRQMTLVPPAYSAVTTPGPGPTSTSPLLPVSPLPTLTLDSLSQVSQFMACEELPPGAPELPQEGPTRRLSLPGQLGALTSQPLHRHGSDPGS
Experiment: primary screen, population patch clamp on CHO cells stably expressing hERG; higher = less effect of the substance
The campaign covered roughly 310,000 compounds. About 14,000 (4.5%) showed an effect of 50% or more. The effect is printed as a negative number. Only a selection was taken, and strong results are over-represented in it overall.
Please note: fulfilled applies when hERG current change (%, negative = inhibition) at 10uM is -20% or greater, and not fulfilled applies otherwise.

As a guide, the following entries are already answered.
molecule | testedTarget | label
COCCCNC(=O)CSC1=Nc2ccccc2C2=NC(c3ccccc3)C(=O)N12 (stereo not drawn) | human ether-à-go-go-related gene (hERG) potassium channel (human, UniProt Q12809) | not fulfilled
Cn1c(N)c(C(=O)COC(=O)CSc2ccccc2)c(=O)n(C)c1=O | human ether-à-go-go-related gene (hERG) potassium channel (human, UniProt Q12809) | not fulfilled
CC(=O)c1ccc(NC(=O)CCc2nnc3ccc(NCc4ccco4)nn23)cc1 | human ether-à-go-go-related gene (hERG) potassium channel (human, UniProt Q12809) | fulfilled

(Q) Tell me whether hERG current change (%, negative = inhibition) at 10uM is at least -20% here: `Cc1ccc(OCC(=O)O/N=C(\N)Cc2ccc([N+](=O)[O-])cc2)cc1C`
(A) not fulfilled

(Q) Note, next up: `N/C(Cc1ccc([N+](=O)[O-])cc1)=N\OC(=O)C(c1ccccc1)c1ccccc1`
(A) not fulfilled

(Q) Note, next up: `Cc1cc2c(C)nc(N/N=C/c3ccccc3)nc2o1`
(A) not fulfilled

(Q) Note, next up: `N/C(Cc1ccc([N+](=O)[O-])cc1)=N\OC(=O)Cc1ccc(Cl)cc1`
(A) fulfilled

(Q) Note, next up: `N/C(Cc1ccc([N+](=O)[O-])cc1)=N\OC(=O)CC1CCCCC1`
(A) not fulfilled

(Q) Note, next up: O=c1[nH]c2cc3c(cc2cc1C(c1nnnn1C1CCCC1)N1CCSCC1)OCCO3 (stereo not drawn)
(A) fulfilled

(Q) Note, next up: `COc1ccc(C)cc1-n1nnnc1SCc1cn2ccsc2n1`
(A) not fulfilled

(Q) Note, next up: `CC(=O)Oc1c(C(=O)c2nnc(C)o2)c(=O)n(Cc2ccccc2)c2ccccc12`
(A) fulfilled

(Q) Note, next up: CCCN1C(=O)C(O)(CC(=O)c2ccc3c(c2)OCCO3)c2ccccc21 (stereo not drawn)
(A) fulfilled

(Q) Note, next up: `Cc1cc2c(C)nc(N/N=C/c3ccc(F)cc3)nc2o1`
(A) not fulfilled

(Q) Note, next up: `Cc1cc2c(C)nc(N/N=C/c3ccc([N+](=O)[O-])cc3)nc2o1`
(A) fulfilled
